The entries below come with measured protein stability index values attached.
Assay Method Text: protein stability index of a GFP-peptide fusion (GPS, HEK-293T) (PSI 1-6); higher = more stable;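 further: 24-mer peptide tiles fused after GFP, lentivirally expressed, FACS-sorted into six equal bins by GFP/DsRed ratio, decoded by Illumina sequencing, PSI is the read-weighted mean bin number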
Assay Context: treatment: MLN4924 1 uM, 8 h; c terminus: a fixed tail appended

>  <Seq String>
YLLTVMAAAAKAFKHPSIRNPVSL [ADAMTS4]

>  <protein stability index>
2.15

$$$$
>  <Seq String>
VFRIFKLSRHSKGLQILGHTLRAS [KCNA4]

>  <protein stability index>
2.6

$$$$
>  <Seq String>
AECALVSLKEAEFYDKQLKVLLSG [ZFYVE21]

>  <protein stability index>
3.05

$$$$
>  <Seq String>
GKLVLSSLPKRLCLVCGDVASGYH [ESRRA]

>  <protein stability index>
1.97

$$$$
>  <Seq String>
DPVLAKVAGDCLDEKQCKQCANKV [LRRC59]

>  <protein stability index>
5.07

$$$$
>  <Seq String>
DTYDSVYLHPNSYSCACLASGSVL [HDAC6]

>  <protein stability index>
2.3

$$$$
>  <Seq String>
YQDKIRPYIQLPSHSNITGIVEVI [TRIB1]

>  <protein stability index>
2.17

$$$$

---

Assay Method Text: protein stability index of a GFP-peptide fusion (GPS, HEK-293T) (PSI 1-6); higher = more stable
Assay Context: treatment: DMSO; c terminus: native
Quantity Kind: protein stability index

>  <Seq String>
HRGCGDGCCCPSCYRRYRFTGFY [KRTAP19-2]

>  <Quantity Kind>
protein stability index

>  <Measured>
2.83

$$$$
>  <Seq String>
LLREEEYVAPPRGPLPTLQVVPL [TRAF3IP2]

>  <Quantity Kind>
protein stability index

>  <Measured>
2.35

$$$$
>  <Seq String>
RKPDPMCVFTYVQSLYNHLRRFE [SMTNL2]

>  <Quantity Kind>
protein stability index

>  <Measured>
2.74

$$$$
>  <Seq String>
RRVWSPPRVHKVEMGFGGGGGAN [ZBTB22]

>  <Quantity Kind>
protein stability index

>  <Measured>
4.13

$$$$
>  <Seq String>
KLTQRLEEMTQRMEALENRLRYR [MATN2]

>  <Quantity Kind>
protein stability index

>  <Measured>
2.7

$$$$
>  <Seq String>
PEVECLKANTNEVLWAVVAAFTK [GOLPH3]

>  <Quantity Kind>
protein stability index

>  <Measured>
2.17

$$$$
>  <Seq String>
LDNLLAFVCDIRPEIHENYRING [ATP6V1G1]

>  <Quantity Kind>
protein stability index

>  <Measured>
2.27

$$$$
>  <Seq String>
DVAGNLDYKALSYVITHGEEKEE [MYL5]

>  <Quantity Kind>
protein stability index

>  <Measured>
2.62

$$$$

---

Assay Method Text: protein stability index of a GFP-peptide fusion (GPS, HEK-293T) (PSI 1-6); higher = more stable
Assay Context: treatment: DMSO; c terminus: a fixed tail appended
Outcome label depends on protein stability index relative to 4: at/above gives rule met, below gives rule not met.

>  <Seq String>
YIESSTKVYDDMAFRYLSWILFPL [CLPTM1]

>  <Class Label>
rule not met

$$$$
>  <Seq String>
TKGEKIMLAIITKMTLTQVSTWFA [IRX6]

>  <Class Label>
rule not met

$$$$
>  <Seq String>
GCSAVSEPASESVVGALPAEHQFS [TRAF3IP2]

>  <Class Label>
rule met

$$$$
>  <Seq String>
QFISRFLEGQSGVTIKHVACGDFF [NEK8]

>  <Class Label>
rule not met

$$$$
>  <Seq String>
GLSPYSDYEFRVVAVNNIGRGPPS [PTPRD]

>  <Class Label>
rule not met

$$$$
>  <Seq String>
PASGEVEASQLRRLNIKKDDEFFH [TMEM40]

>  <Class Label>
rule met

$$$$
>  <Seq String>
WTSFICDTYIVLAWISKIKGSPDV [SMIM2]

>  <Class Label>
rule not met

$$$$
>  <Seq String>
AVVRLNKKIYEAKRFTDAGFEHYD [CDC14A]

>  <Class Label>
rule not met

$$$$
>  <Seq String>
GHHAEKLPAGAGAPKAGLEEAPAV [TNFSF13B]

>  <Class Label>
rule met

$$$$
>  <Seq String>
DSVSVNDIDLSLYIPRDVDETGIT [ZC3H15]

>  <Class Label>
rule not met

$$$$
>  <Seq String>
HIDSSCSSFIKTEPSSPASLTDSV [ESRRG]

>  <Class Label>
rule met

$$$$
>  <Seq String>
MLVDGIDPNFKMEHQNKRSPLHAA [EHMT1]

>  <Class Label>
rule not met

$$$$

---

Assay Method Text: protein stability index of a GFP-peptide fusion (GPS, HEK-293T) (PSI 1-6); higher = more stable
Assay Context: treatment: DMSO; c terminus: a fixed tail appended
Each entry gets n if its protein stability index stays under 3, and y if its protein stability index is 3 or above.

>  <Seq String>
IRCVYILDPWFAGSSNVGINRWRF [CRY1]

>  <Class Label>
y

$$$$
>  <Seq String>
CICGFTHDDGYMICCDKCSVWQHI [KMT2E]

>  <Class Label>
y

$$$$
>  <Seq String>
EPYARLPPHKHVARPTEVLAGTQL [TRIB3]

>  <Class Label>
y

$$$$
>  <Seq String>
HVLHHGTGKWYELQDLQVTDILPQ [USP39]

>  <Class Label>
n

$$$$
>  <Seq String>
RNVTGTPLTGDKDDEEVDTHFASQ [ADAMTSL2]

>  <Class Label>
y

$$$$
>  <Seq String>
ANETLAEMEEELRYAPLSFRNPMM [VTI1B]

>  <Class Label>
n

$$$$
>  <Seq String>
SSGLQDVTGPDNGVRESETEQGFG [NFE2L1]

>  <Class Label>
y

$$$$
>  <Seq String>
EPDAADGPYDPNSVRISFAKGWGP [SMAD6]

>  <Class Label>
y

$$$$
>  <Seq String>
IICEAHKVLGNRWAEIAKMLPGRT [MYBL2]

>  <Class Label>
n

$$$$
>  <Seq String>
GKKYNTMLGYKRHLALHAASSGDL [PLAGL1]

>  <Class Label>
y

$$$$
>  <Seq String>
FESGSVSFLNVTKSSLIWSYPAGS [TRIM43]

>  <Class Label>
n

$$$$

---

Assay Method Text: protein stability index of a GFP-peptide fusion (GPS, HEK-293T) (PSI 1-6); higher = more stable
Assay Context: treatment: DMSO; c terminus: a fixed tail appended
Measured protein stability index of individual entries

>  <Seq String>
WQDSDTVKLLVDLELSYGFENGQK [TOR1AIP2]

>  <protein stability index>
2.7

$$$$
>  <Seq String>
CCVKTELLGEETPMAADEGSAEKQ [EHMT1]

>  <protein stability index>
5.45

$$$$
>  <Seq String>
TRTAEPAESSVPPVTSIGIDNLGL [SLC35F2]

>  <protein stability index>
4.48

$$$$
>  <Seq String>
IRIKLDPCHPTVKNWRNFASKWGM [EDARADD]

>  <protein stability index>
3.28

$$$$
>  <Seq String>
GRAVDQDKVLRFAQQIRLHHFNSS [MYORG]

>  <protein stability index>
2.51

$$$$
>  <Seq String>
CELAQDKEAAEAIEAEGATAPLTE [CTNNB1]

>  <protein stability index>
5.49

$$$$
>  <Seq String>
GFFSSAFQARLSGNNLHNASIPEH [POMT2]

>  <protein stability index>
2.81

$$$$
>  <Seq String>
YSSRTPGTPGTPSYPRTPHTPGTP [MAP2]

>  <protein stability index>
4.25

$$$$
>  <Seq String>
TSGKLLLEADELCDDGGDGRGAVV [ZBTB22]

>  <protein stability index>
5.36

$$$$
>  <Seq String>
EVRDRMLLKITIPNAFIGSDVVDW [DVL3]

>  <protein stability index>
2.17

$$$$
>  <Seq String>
AWNIPMSNPGVDFGDVSERLALRQ [GALNT9]

>  <protein stability index>
3.68

$$$$
>  <Seq String>
LMAPTCVFLASKVEEFGVVSNTRL [CCNC]

>  <protein stability index>
2.2

$$$$
>  <Seq String>
EFPEARIFEETLNILIYETPRGPD [KCTD13]

>  <protein stability index>
2.48

$$$$
>  <Seq String>
LEQFVAILPKELQTWVRDHHPENG [ZNF24]

>  <protein stability index>
3.2

$$$$
>  <Seq String>
ENKDHSLERGRASLIFSLKNEVGG [TPH1]

>  <protein stability index>
4.09

$$$$
>  <Seq String>
ARGSIVATYIFIFIGETLLSMNWA [SPNS1]

>  <protein stability index>
3.4

$$$$
>  <Seq String>
SWVSELLWSLFVPFTVYQVRWLRP [AUP1]

>  <protein stability index>
3.12

$$$$
>  <Seq String>
QRYEHGRTLKSYLGLTNQSRRYNR [ZNF649]

>  <protein stability index>
3.39

$$$$
>  <Seq String>
SAETSGGLLICLPREQAARFCSEI [SEPHS2]

>  <protein stability index>
2.31

$$$$
>  <Seq String>
IVATLLILDICEDNVPDPKDVKER [TMEM175]

>  <protein stability index>
2.46

$$$$
>  <Seq String>
QDPQLHSPFSGSLHAPPAFYSTSS [VENTX]

>  <protein stability index>
3.65

$$$$
>  <Seq String>
NKCSGMRFPLQEENSVTHHEVKCQ [KMT5A]

>  <protein stability index>
4.79

$$$$
>  <Seq String>
TCTLLLLYSLAPTMGAVVLSSTLL [MFSD9]

>  <protein stability index>
3.22

$$$$
>  <Seq String>
HLPADSEVTLEANPTSAPGSRLAE [RSAD1]

>  <protein stability index>
5.49

$$$$
>  <Seq String>
GPSNTSHSSSRDSHLSNGLDPVAE [C2CD2L]

>  <protein stability index>
5.34

$$$$
>  <Seq String>
TFESPADAKDAARDMNGKSLDGKA [RBMX]

>  <protein stability index>
5.39

$$$$
>  <Seq String>
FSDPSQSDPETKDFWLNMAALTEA [FCHO1]

>  <protein stability index>
3.4

$$$$

Origin of the recorded values: the supplement of paper PMC10567573
